experiment: Single-dose pharmacokinetic study of berberine and fish oil in rats
Assay type: in vivo, male Sprague-Dawley (SD) rats
settings: male, Sprague-Dawley, rat, plasma; SD rats, single oral; BBR 100 mg/kg; read-out: AUC0-t of BBR
parameter-measured: AUC(0-t) (ng·h/mL)
# number only, unit ng·h/mL dropped from output

What measured AUC(0-t) goes with COc1ccc2cc3[n+](cc2c1OC)CCc1cc2c(cc1-3)OCO2 [BBR] ?
45.8
